Target: Cytochrome P450 3A4 (Homo sapiens)
Sequence (P08684 whole entry): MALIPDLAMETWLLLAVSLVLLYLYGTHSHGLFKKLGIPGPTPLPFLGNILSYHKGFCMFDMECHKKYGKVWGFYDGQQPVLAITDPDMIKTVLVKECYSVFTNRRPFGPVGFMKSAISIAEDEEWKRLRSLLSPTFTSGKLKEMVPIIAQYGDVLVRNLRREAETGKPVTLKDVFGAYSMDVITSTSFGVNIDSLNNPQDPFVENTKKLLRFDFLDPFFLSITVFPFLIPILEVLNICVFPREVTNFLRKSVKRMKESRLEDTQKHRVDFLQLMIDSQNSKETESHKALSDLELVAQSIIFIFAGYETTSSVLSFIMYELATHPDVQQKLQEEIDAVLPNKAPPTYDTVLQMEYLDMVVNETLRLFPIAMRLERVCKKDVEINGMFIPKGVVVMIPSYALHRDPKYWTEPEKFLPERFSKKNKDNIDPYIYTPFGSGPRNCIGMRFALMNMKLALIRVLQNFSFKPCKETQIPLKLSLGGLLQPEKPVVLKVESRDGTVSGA
Test: Inhibition of human CYP3A4 expressed in HEK293 cells by fluorescence assay
Type: ADME, cell-based
Reported endpoint: IC50

In: Read off the recorded IC50 for CC(C)=CCc1cc(C2CC(=O)c3ccc(O)c(CC=C(C)C)c3O2)ccc1O (stereo unspecified)
Out: > 20 µM

---

Target: UniProt:P10635
Sequence (P10635 whole entry): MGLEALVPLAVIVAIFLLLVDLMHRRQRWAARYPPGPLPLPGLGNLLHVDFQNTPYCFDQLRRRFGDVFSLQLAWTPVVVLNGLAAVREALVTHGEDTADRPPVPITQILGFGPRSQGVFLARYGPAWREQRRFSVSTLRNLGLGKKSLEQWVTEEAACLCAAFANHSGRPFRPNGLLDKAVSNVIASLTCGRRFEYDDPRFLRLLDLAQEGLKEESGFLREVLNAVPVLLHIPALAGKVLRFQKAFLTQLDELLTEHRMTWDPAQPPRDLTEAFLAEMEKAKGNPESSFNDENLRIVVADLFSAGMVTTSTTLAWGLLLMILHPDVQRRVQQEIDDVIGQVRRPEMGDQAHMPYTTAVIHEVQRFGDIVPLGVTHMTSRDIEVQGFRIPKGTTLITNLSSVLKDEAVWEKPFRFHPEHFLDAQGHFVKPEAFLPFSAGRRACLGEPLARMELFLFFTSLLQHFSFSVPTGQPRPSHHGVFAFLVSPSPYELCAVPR
Experiment: Inhibition of human CYP2D6 expressed in HEK293 cells by fluorescence assay
Type: ADME, cell-based
pIC50: −log10 of the molar value.
Measured pIC50 values are reported for all entries that follow.

O=c1c(O)c(-c2ccc(O)c(O)c2)oc2cc(O)cc(O)c12 = < 4.70

Next molecule, please.
In: Read off the recorded pIC50 for CC(C)=CCc1cc(C2CC(=O)c3ccc(O)c(CC=C(C)C)c3O2)ccc1O (configuration not stated)
Out: < 4.70
